Just for reference, the supplement of paper PMC11208160 is where these values come from.

What recombinant barcode read abundance (log10) was measured for each of the following?
- TEST METHOD NOTES: recombinant barcode read abundance after kanamycin selection (control-corrected) (log10(CPM+1)); higher = more efficient recombination; sequences stand for … in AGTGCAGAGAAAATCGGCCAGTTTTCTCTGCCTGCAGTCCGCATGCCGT…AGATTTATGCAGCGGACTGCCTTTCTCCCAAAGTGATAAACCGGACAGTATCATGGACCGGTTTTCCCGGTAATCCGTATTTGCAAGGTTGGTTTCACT; site = the 11-nt target;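 further: IS621 recombinase and bridge RNA in Escherichia coli cells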
Write the number on its own, no unit after it.

Request: State the recorded recombinant barcode read abundance (log10) for this entry: AGAGCCTCTTGGGTTCTAACCTGTTGCTA (site AGAGCCTCTTA)
Result: 2.36

Request: Please report the recorded recombinant barcode read abundance (log10) for AGATTTCCTTGGGTTCTAACCTGTTGCCT (site ATATTTCCTAG) .
Result: 0.234

Request: Quick one: recombinant barcode read abundance (log10) for GAGATATCTTGGGTTCTAACCTGTTGCCT (site GAGAAATCTAG) ?
Result: 0.223

Request: Name the reported recombinant barcode read abundance (log10) value associated with the sequence ACATAGTCTTGGGTTCTAACCTGTTGCCT (site ACATAGTCTAG)
Result: 1.75

Request: Quick one: recombinant barcode read abundance (log10) for AGTTGTCCTTGGGTTCTAACCTGTTGCTT (site AGTTGTCCTAT) ?
Result: 0.0416

Request: For ACAGGCTCTTGGGTTCTAACCTGTTGCCT (site ACAGCCTCTAG) , what is its reported recombinant barcode read abundance (log10)?
Result: 0.0406

Request: Look up recombinant barcode read abundance (log10) for this sequence: CCTAGCACTTGGGTTCTAACCTGTTGCGA (site CCTGGCACTTC)
Result: 0.0943

Request: Fill in: recombinant barcode read abundance (log10) of CCGTCTACTTGGGTTCTAACCTGTTGCTT (site CCGTCTACTAA) is ___
Result: 0.107

Request: Return reported recombinant barcode read abundance (log10); argument: ACGATAACTTGGGTTCTAACCTGTTGCCA (site ACGATAACTTG)
Result: 0.215

Request: Find the recorded recombinant barcode read abundance (log10) belonging to CGGAGCCCTTGGGTTCTAACCTGTTGCAG (site CTGAGCCCTAT) and report it.
Result: 0.143

Request: Reported recombinant barcode read abundance (log10), sequence TAGGGTACTTGGGTTCTAACCTGTTGCGC (site ACAACCTCTCG) : ____
Result: 0.0219

Request: Please report the recorded recombinant barcode read abundance (log10) for GGGGACCCTTGGGTTCTAACCTGTTGCGA (site GGGGACCCTAC) .
Result: 1.74

Request: Which recombinant barcode read abundance (log10) value is on record for TTACGTGCTTGGGTTCTAACCTGTTGCGG (site TTACGCGCTCC) ?
Result: 0.141

Request: Form field: reported recombinant barcode read abundance (log10) of GCCGAGTCTTGGGTTCTAACCTGTTGCTA (site GCCGAGTCTGA)
Result: 0.0866

Request: Need recombinant barcode read abundance (log10) of GACCCTACTTGGGTTCTAACCTGTTGCCT (site TACCCTACTAG) , thanks.
Result: 0.119

Request: What measured recombinant barcode read abundance (log10) goes with AAATGACCTTGGGTTCTAACCTGTTGCGT (site GTGCCCGCTCT) ?
Result: 0.548

Request: Which recombinant barcode read abundance (log10) value belongs to ACCAGGTCTTGGGTTCTAACCTGTTGCCT (site ACCAGGTCTAG) ?
Result: 1.59

Request: Which measured recombinant barcode read abundance (log10) value corresponds to CTCTAAACTTGGGTTCTAACCTGTTGCCG (site CTCATAACTCG) ?
Result: 0.132

Request: Given the entry CTAGTGACTTGGGTTCTAACCTGTTGCGC (site CTAGTGACTTC) , report its measured recombinant barcode read abundance (log10).
Result: 0.127

Request: For the sequence shown here, ACCCTAACTTGGGTTCTAACCTGTTGCGG (site ACCCTAACTCC) , give the reported recombinant barcode read abundance (log10).
Result: 1.16

Request: Can you share its recombinant barcode read abundance (log10)? I mean this sequence: CGAGTGACTTGGGTTCTAACCTGTTGCCA (site TTCCGTCCTAA)
Result: 0.382
